biological target: Ras-related protein Rab-7a (dog), GTP binding; assay: Rab7 GTP binding inhibitors, potency, dose response, biochemical, wildtype, multiplex bead flow cytometry (AID 1336); conditions: bead-based flow cytometry, fluorescent GTP binding to Rab7
measurement.label: EC50

Any idea what EC50 was measured for Cc1nn(Cc2ccccc2)c(Cl)c1C(=O)O ? 3.54 µM

Subsequent entry: N#Cc1c(-c2ccccc2)nc(SCC(=O)Nc2ccccc2)[nH]c1=O 6.42 µM

Moving on to the next molecule: CC(C)C(NCc1c(Cl)cccc1Cl)C(=O)O (stereo unspecified) 2.23 µM

Follow-up item: CCOc1ccc(/C=C2\SC(N3CCc4ccccc4C3)=NC2=O)cc1 11.5 µM

Also, Cc1sc(-n2c(C)cc(C=C3C(=O)NC(=O)NC3=O)c2C)c(C#N)c1C please. 28.9 µM

Another molecule to look at: Cc1cc(C(=O)O)sc1CNCc1ccccc1Cl 0.423 µM
